assay: Pharmacokinetics of Imp in rabbits; format: in vivo; conditions: male, New Zealand white, rabbit, plasma, iv, 200 mg/kg
experimental readout: clearance (mL/min/kg)
One number for each entry, in mL/min/kg.

clearance reported for this molecule C[C@@H](O)[C@H]1C(=O)N2C(C(=O)O)=C(SCCN=CN)C[C@H]12 [Imp, Imipenem] : 11.9

---

assay: Pharmacokinetics of Imp in rabbits; assay type: in vivo; conditions: male, New Zealand white, rabbit, plasma, iv, 200 mg/kg
experimental readout: half-life (min)
One number for each entry, in min.

Entry C[C@@H](O)[C@H]1C(=O)N2C(C(=O)O)=C(SCCN=CN)C[C@H]12 [Imp, Imipenem] — recorded half-life = 58

---

assay: Pharmacokinetics of Imp in rabbits; format: in vivo; details: male, New Zealand white, rabbit, plasma, iv, 200 mg/kg
experimental readout: AUC(0-t) (µg·h/mL)
Numbers only, in µg·h/mL.

So for "C[C@@H](O)[C@H]1C(=O)N2C(C(=O)O)=C(SCCN=CN)C[C@H]12" , the logged AUC(0-t) turned out to be 289
